Values compiled from patent US20260028354A1.

- STUDY TARGET: CRBN/DDB1 (Homo sapiens (Human), UniProt Q96SW2)
- Sequence (Q96SW2 whole entry, species assumed): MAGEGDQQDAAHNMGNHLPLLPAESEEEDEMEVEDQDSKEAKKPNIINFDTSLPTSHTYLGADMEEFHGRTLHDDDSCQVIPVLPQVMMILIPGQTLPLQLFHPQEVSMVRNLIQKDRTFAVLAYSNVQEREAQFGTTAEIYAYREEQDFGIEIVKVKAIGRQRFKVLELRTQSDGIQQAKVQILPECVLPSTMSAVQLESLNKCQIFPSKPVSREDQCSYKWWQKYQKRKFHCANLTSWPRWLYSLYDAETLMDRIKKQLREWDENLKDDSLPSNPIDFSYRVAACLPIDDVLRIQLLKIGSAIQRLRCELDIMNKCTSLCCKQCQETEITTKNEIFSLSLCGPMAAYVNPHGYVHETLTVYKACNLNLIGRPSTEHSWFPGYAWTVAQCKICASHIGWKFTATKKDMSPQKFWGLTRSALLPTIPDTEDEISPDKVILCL
- Sequence (Q16531 whole entry partner, species assumed): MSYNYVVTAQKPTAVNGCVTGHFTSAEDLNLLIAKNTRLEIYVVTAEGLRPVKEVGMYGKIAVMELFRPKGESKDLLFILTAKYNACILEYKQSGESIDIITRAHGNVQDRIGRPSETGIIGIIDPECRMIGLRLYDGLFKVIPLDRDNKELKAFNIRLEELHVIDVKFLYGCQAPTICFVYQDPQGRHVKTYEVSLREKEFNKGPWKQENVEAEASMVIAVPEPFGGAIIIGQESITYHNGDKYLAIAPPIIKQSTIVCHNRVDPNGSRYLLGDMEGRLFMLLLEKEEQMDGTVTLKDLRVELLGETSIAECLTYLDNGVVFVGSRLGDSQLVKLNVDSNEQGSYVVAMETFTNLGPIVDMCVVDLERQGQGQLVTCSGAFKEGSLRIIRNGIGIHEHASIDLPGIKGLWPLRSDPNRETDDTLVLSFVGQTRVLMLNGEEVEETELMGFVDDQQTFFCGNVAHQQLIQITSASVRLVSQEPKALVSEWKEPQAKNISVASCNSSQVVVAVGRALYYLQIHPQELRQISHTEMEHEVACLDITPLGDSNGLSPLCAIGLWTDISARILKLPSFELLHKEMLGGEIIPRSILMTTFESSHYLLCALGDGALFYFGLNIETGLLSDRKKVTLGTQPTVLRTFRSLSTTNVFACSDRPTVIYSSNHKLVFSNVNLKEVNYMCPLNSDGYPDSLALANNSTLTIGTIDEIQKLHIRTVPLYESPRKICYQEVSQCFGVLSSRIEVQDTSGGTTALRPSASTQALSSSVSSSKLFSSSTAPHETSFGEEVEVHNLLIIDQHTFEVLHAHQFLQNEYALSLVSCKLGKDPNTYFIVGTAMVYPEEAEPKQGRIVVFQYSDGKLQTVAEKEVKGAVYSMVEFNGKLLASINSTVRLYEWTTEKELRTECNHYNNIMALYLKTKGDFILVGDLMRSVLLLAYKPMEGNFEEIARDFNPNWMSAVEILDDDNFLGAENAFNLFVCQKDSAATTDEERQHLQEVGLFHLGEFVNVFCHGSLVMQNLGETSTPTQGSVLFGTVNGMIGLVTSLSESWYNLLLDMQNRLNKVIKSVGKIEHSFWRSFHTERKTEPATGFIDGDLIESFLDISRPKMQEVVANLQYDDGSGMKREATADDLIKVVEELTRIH
- CONDITION SET: His tagged CRBN+DDB1, Cy5-labeled Thalidomide probe, one hour; read-out: CRBN HTRF IC50
pIC50: −log10 of the molar value.
Entries annotated with measured pIC50
QUANTITY: pIC50

| COMPOUND | STUDY TARGET | QUANTITY | REPORTED |
| --- | --- | --- | --- |
| O=C1CC[C@H](N2Cc3c(ccc4c3OCC43CCN(CC4CC5(CCN(c6ccc([C@H]7c8ccc(O)cc8CC[C@H]7c7ccccc7)cc6F)CC5)C4)CC3)C2=O)C(=O)N1 [Compound A148] | CRBN/DDB1 (Homo sapiens (Human), UniProt Q96SW2) | pIC50 | > 7.30 |
| O=C1CC[C@@H](Nc2ccc(C3CCN(C[C@@H]4COC5(CCN(c6ccc([C@@H]7c8ccc(O)cc8CC[C@@H]7c7ccccc7)cc6)CC5)C4)CC3)cc2)C(=O)N1 (single isomer, unassigned) [Compound A29] | CRBN/DDB1 (Homo sapiens (Human), UniProt Q96SW2) | pIC50 | 6.30 to 7.30 |
| O=C1CC[C@H](N2Cc3c(ccc4c3OCC43CCN(CC4CC5(CCN(c6ccc([C@@H]7c8ccc(O)cc8CC[C@@H]7c7ccccc7)cn6)CC5)C4)CC3)C2=O)C(=O)N1 [Compound A116] | CRBN/DDB1 (Homo sapiens (Human), UniProt Q96SW2) | pIC50 | > 7.30 |
| O=C1CC[C@H](NC(=O)c2ccc3c(n2)OC[C@H]2CN(C[C@@H]4COC5(CCN(c6ccc([C@H]7c8ccc(O)cc8CC[C@H]7c7ccccc7)cc6)CC5)C4)CCN32)C(=O)N1 (single isomer, unassigned) [Compound A16] | CRBN/DDB1 (Homo sapiens (Human), UniProt Q96SW2) | pIC50 | 5.30 to 6.30 |
| COc1cc(N2CCC3(CC2)CC(CN2CCC4(CC2)COc2c4ccc4c2CN([C@H]2CCC(=O)NC2=O)C4=O)CO3)ccc1[C@@H]1c2ccc(O)cc2CC[C@@H]1c1ccccc1 (stereo partly drawn) [Compound A55] | CRBN/DDB1 (Homo sapiens (Human), UniProt Q96SW2) | pIC50 | > 7.30 |
| O=C1CC[C@H](N2Cc3c(ccc4c3OCC43CCN(CC4CCC5(CC4)CN(c4ncc([C@H]6c7ccc(O)cc7CC[C@H]6c6ccccc6)cn4)C5)CC3)C2=O)C(=O)N1 [Compound A153] | CRBN/DDB1 (Homo sapiens (Human), UniProt Q96SW2) | pIC50 | > 7.30 |
| COc1cc(N2CCC3(CC2)CC(CN2CCN4c5ccc(C(=O)N[C@H]6CCC(=O)NC6=O)nc5OCC4C2)C3)ccc1[C@@H]1c2ccc(O)cc2CC[C@@H]1c1ccccc1 (stereo in doubt) [Compound A108] | CRBN/DDB1 (Homo sapiens (Human), UniProt Q96SW2) | pIC50 | 5.30 to 6.30 |
| COc1cc(N2CCC3(CC2)CC(CN2CCC(c4ccc(N[C@H]5CCC(=O)NC5=O)c(F)c4)CC2)C3)ccc1[C@@H]1c2ccc(O)cc2CC[C@@H]1c1ccccc1 (single isomer, unassigned) [Compound A109] | CRBN/DDB1 (Homo sapiens (Human), UniProt Q96SW2) | pIC50 | 5.30 to 6.30 |
| O=C1CC[C@H](N2Cc3c(ccc4c3OC[C@H]3CN(CC5CCC6(CC5)CN(c5ccc([C@@H]7c8ccc(O)cc8CC[C@@H]7c7ccccc7)cc5F)C6)CCN43)C2=O)C(=O)N1 (single isomer, unassigned) [Compound A152] | CRBN/DDB1 (Homo sapiens (Human), UniProt Q96SW2) | pIC50 | 5.30 to 6.30 |
| COc1cc(N2CCC3(CC2)CC(CN2CCN4c5ccc6c(c5OC[C@H]4C2)CN([C@H]2CCC(=O)N(C)C2=O)C6=O)C3)ccc1[C@@H]1c2ccc(O)cc2CC[C@@H]1c1ccccc1 (single isomer, unassigned) [Compound A132] | CRBN/DDB1 (Homo sapiens (Human), UniProt Q96SW2) | pIC50 | 5.30 to 6.30 |
| COc1cc(N2CCC3(CC2)C[C@H](CN2CCN4c5cc6c(cc5OC[C@@H]4C2)C(=O)N([C@H]2CCC(=O)NC2=O)C6)CO3)ccc1[C@@H]1c2ccc(O)cc2CC[C@@H]1c1ccccc1 (single isomer, unassigned) [Compound A135] | CRBN/DDB1 (Homo sapiens (Human), UniProt Q96SW2) | pIC50 | 5.30 to 6.30 |
| COc1cc(N2CC3(CC(CN4CCN5c6ccc7c(c6OC[C@H]5C4)CN([C@H]4CCC(=O)NC4=O)C7=O)CO3)C2)ccc1[C@H]1c2ccc(O)cc2CC[C@H]1c1ccccc1 (single isomer, unassigned) [Compound A47] | CRBN/DDB1 (Homo sapiens (Human), UniProt Q96SW2) | pIC50 | 6.30 to 7.30 |
| O=C1CC[C@H](N2Cc3c(ccc4c3OCC43CCN(CC4CC5(CCN(c6ncc([C@H]7c8ccc(O)cc8CC[C@H]7c7ccccc7)cn6)CC5)C4)CC3)C2=O)C(=O)N1 [Compound A141] | CRBN/DDB1 (Homo sapiens (Human), UniProt Q96SW2) | pIC50 | > 7.30 |
| O=C1CC[C@H](Nc2ccc(C3CCN(C[C@@H]4COC5(CCN(c6ccc([C@@H]7c8ccc(O)cc8CC[C@@H]7c7ccccc7)cc6)CC5)C4)CC3)cc2)C(=O)N1 (single isomer, unassigned) [Compound A28] | CRBN/DDB1 (Homo sapiens (Human), UniProt Q96SW2) | pIC50 | 6.30 to 7.30 |
| O=C1CC[C@H](N2Cc3cc4c(cc3C2=O)OC[C@H]2CN(C[C@H]3COC5(CCN(c6ccc([C@@H]7c8ccc(O)cc8CC[C@@H]7c7ccccc7)cc6)CC5)C3)CCN42)C(=O)N1 (single isomer, unassigned) [Compound A17] | CRBN/DDB1 (Homo sapiens (Human), UniProt Q96SW2) | pIC50 | 5.30 to 6.30 |
| COc1cc(N2CCC3(CC2)CC(CN2CCC4(CC2)COc2c4ccc4c2CN([C@H]2CCC(=O)NC2=O)C4=O)C3)ccc1[C@@H]1c2ccc(O)cc2CC[C@@H]1c1ccccc1 [Compound A95] | CRBN/DDB1 (Homo sapiens (Human), UniProt Q96SW2) | pIC50 | > 7.30 |
| O=C1CC[C@H](N2Cc3c(ccc4c3OC[C@H]3CN(CC5COC6(C5)CN(c5ccc([C@@H]7c8ccc(O)cc8CC[C@@H]7c7ccccc7)cc5)C6)CCN43)C2=O)C(=O)N1 (single isomer, unassigned) [Compound A7] | CRBN/DDB1 (Homo sapiens (Human), UniProt Q96SW2) | pIC50 | 5.30 to 6.30 |
| O=C1CC[C@H](N2Cc3c(ccc4c3OC[C@H]3CN(CCCOC5CN(c6ccc([C@@H]7c8ccc(O)cc8CC[C@@H]7c7ccccc7)cc6)C5)CCN43)C2=O)C(=O)N1 [Compound A78] | CRBN/DDB1 (Homo sapiens (Human), UniProt Q96SW2) | pIC50 | > 7.30 |
